species: Rattus norvegicus; assay: Displacement of [125I]-triiodothyronine from thyroid hormone receptor in rat liver membrane homogenates assessed as relative T3 displacement incubated for 18 hrs by scintillation counting method relative to control; format: cell membranes
recordedMetric: relative binding affinity (RBA)

Record excerpt, results attached:
[[record]]
compoundsmiles = "Nc1ccc(CCc2cc(Br)c(O)c(Br)c2)cc1"
testvalue = 0

[[record]]
compoundsmiles = "O=[N+]([O-])c1ccccc1COc1cc(Br)cc(Br)c1"
testvalue = 0

[[record]]
compoundsmiles = "Brc1cc(Br)cc(Oc2cccc3oc4ccccc4c23)c1"
testvalue = 0


a. Cc1cc(-c2cc(C)c(O)c(C)c2)cc(C)c1O
b. COc1cccc(OC)c1CCc1cc(Br)c(O)c(Br)c1
c. Oc1c(Br)cc(/C=C/c2ccccc2Br)cc1Br
d. COc1ccc(/C=C/c2cc(Br)c(O)c(Br)c2)cc1
In: Ordering criterion: relative binding affinity (RBA); begin with the maximum. To answer, arrange all of the labels according to the requested order.
Out: c, d, a, b

a. Cc1cc(C)cc(Oc2cccc3oc4ccccc4c23)c1
b. Oc1c(Br)cc(/C=C/c2c(Cl)cccc2Cl)cc1Br
In: Of a and b , whose reported relative binding affinity (RBA) is numerically smaller? Bench note: the answer is the label of the chosen record.
Out: a
(a: 0, b: 0.7)

a. Oc1c(Br)cc(CCc2cccc(F)c2)cc1Br
b. Cc1cc(-c2cccc3oc4ccccc4c23)cc(C)c1O
In: Sorting by relative binding affinity (RBA) in descending order, would a or b appear first? Bench note: the answer is the label of the chosen record.
Out: a
(a: 0.19, b: 0)

* * *

organism: Rattus norvegicus; assay: Displacement of [125I]-triiodothyronine from thyroid hormone receptor in rat liver membrane homogenates assessed as relative T3 displacement incubated for 18 hrs by scintillation counting method relative to control; type: cell membranes
recordedMetric: relative binding affinity (RBA)

[[record]]
compoundsmiles = "Oc1c(Br)cc(Oc2cccc3oc4ccccc4c23)cc1Br"
testvalue = 0.94

[[record]]
compoundsmiles = "Oc1c(I)cc(/C=C/c2c(Cl)cccc2Cl)cc1I"
testvalue = 0.92

[[record]]
compoundsmiles = "COc1ccccc1C(=O)Nc1cc(Br)cc(Br)c1"
testvalue = 0.1

[[record]]
compoundsmiles = "Oc1cccc(/C=C/c2cc(Br)c(O)c(Br)c2)c1"
testvalue = 0.64


P. Oc1c(Br)cc(/C=C/c2ccccc2C(F)(F)F)cc1Br
Q. Clc1cccc(Cl)c1/C=C/c1cc(Br)cc(Br)c1
R. COc1ccccc1CCc1cc(Br)c(O)c(Br)c1
S. Nc1cccc(/C=C/c2cc(Br)c(N)c(Br)c2)c1
In: Ordering criterion: relative binding affinity (RBA); begin with the maximum. To answer, arrange all of the labels according to the requested order.
Out: P, Q, S, R

I. Oc1c(I)cc(-c2nc3cccc(Cl)c3o2)cc1I
II. Oc1c(Br)cc(/C=C/c2c(Br)cccc2Br)cc1Br
In: Sorting by relative binding affinity (RBA) in descending order, would I or II appear first? Bench note: the answer is the label of the chosen record.
Out: I
(I: 0.92, II: 0.35)

* * *

organism: Rattus norvegicus; experiment: Displacement of [125I]-triiodothyronine from thyroid hormone receptor in rat liver membrane homogenates incubated for 18 hrs by scintillation counting method; assay type: cell membranes; design: concentration or dose not given beside the values; conditions: concentration not given here
recordedMetric: inhibition (%)

Record excerpt, results attached:
[[record]]
compoundsmiles = "Cc1cc(Oc2cccc3oc4ccccc4c23)cc(C)c1O"
testvalue = 0

[[record]]
compoundsmiles = "Cc1cccc(/C=C/c2cc(Br)c(O)c(Br)c2)c1"
testvalue = 35

[[record]]
compoundsmiles = "Oc1c(Br)cc(/C=C/c2cccc(I)c2)cc1Br"
testvalue = 45

[[record]]
compoundsmiles = "Oc1c(Br)cc(/C=C/c2ccc(F)cc2)cc1Br"
testvalue = 40

[[record]]
compoundsmiles = "Oc1c(Br)cc(CCc2ccccc2C(F)(F)F)cc1Br"
testvalue = 8


A. Oc1c(Br)cc(NCc2ccccc2)cc1Br
B. Clc1cccc(Cl)c1/C=C/c1cc(Br)cc(Br)c1
In: Sorting by inhibition in descending order, would A or B appear first? Bench note: the answer is the label of the chosen record.
Out: B

Sourced from ChEMBL document CHEMBL4052680
